target system: human IL-17AA (Homo sapiens, UniProt Q16552)
test description: IL-8 release assay in human epithelial keratinocytes adult (HEKa)
condition parameters: HEKa cells, 3 ng/mL HEK-human IL-17AA + 10 ng/mL human TNFalpha; read-out: Rel EC50 IL-8 release assay
pEC50: −log10 of the molar value.
Entries and their pEC50

Illustrative cases are given below, each with its answer.
Cc1cn[nH]c1-c1ccc(NC(=O)[C@@H](NC(=O)c2ccnn2C(C)C)C(C2CC2)C2CC2)cc1	6.00 to 7.00
CCc1n[nH]c(CC)c1-c1ccc(NC(=O)[C@@H](NC(=O)c2ccnn2[C@H](C)CO)C(C2CC2)C2CC2)cc1	> 7.00
Cc1n[nH]c(C)c1-c1ccc(NC(=O)[C@@H](NC(=O)c2ccnn2CC(F)(F)F)C2CCCCC2)cc1	6.00 to 7.00

In the following, a different molecule is considered.
Answer with pEC50 of Cn1cncc1-c1ccc(NC(=O)[C@@H](NC(=O)OC(C)(C)C)C2Cc3ccccc3C2)cc1 measured for human IL-17AA (Homo sapiens, UniProt Q16552).
< 6.00

====

target system: human IL-17AA (Homo sapiens)
Sequence (Q16552 24-155): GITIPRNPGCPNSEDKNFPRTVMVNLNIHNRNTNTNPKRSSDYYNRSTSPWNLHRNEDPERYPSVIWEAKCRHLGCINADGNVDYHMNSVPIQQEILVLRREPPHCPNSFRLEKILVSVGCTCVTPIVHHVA
test description: IL-8 release assay in human epithelial keratinocytes adult (HEKa)
condition parameters: HEKa cells, 3 ng/mL HEK-human IL-17AA + 10 ng/mL human TNFalpha; read-out: Rel EC50 IL-8 release assay
pEC50: −log10 of the molar value.
recorded endpoint: pEC50

Illustrative cases are given below, each with its answer.
Cc1n[nH]c(C)c1-c1ccc(NC(=O)C(NC(=O)c2ccnn2C)C2CC3CC3C2)cc1 (centres unmarked)	6.00 to 7.00
Cc1n[nH]c(C)c1-c1ccc(NC(=O)[C@@H](NC(=O)OCc2cccnc2)C2CCCCC2)cc1	6.00 to 7.00
CCn1nccc1C(=O)N[C@H](C(=O)Nc1ccc(-c2c(C)n[nH]c2C)cc1)C1CCC(F)(F)CC1	6.00 to 7.00
Cc1n[nH]c(C)c1-c1ccc(NC(=O)C(NC(=O)c2ccnn2C)C(C(F)(F)F)C(F)(F)F)cc1 (racemic)	< 6.00
Cc1n[nH]c(C)c1-c1ccc(NC(=O)[C@@H](NC(=O)c2ccnn2C(C)CO)C(C2CCC2)C2CCC2)cc1 (single isomer, unassigned) [Example 124]	> 7.00
Cc1nocc1C(=O)N[C@H](C(=O)Nc1ccc(-c2c(C)n[nH]c2C)cc1)C1CCCCC1	6.00 to 7.00
Cn1cncc1-c1ccc(NC(=O)[C@@H](NC(=O)c2ccnn2C)[C@H]2CCc3ccc(Br)cc32)cc1	6.00 to 7.00
Cc1n[nH]c(C)c1-c1ccc(NC(=O)[C@@H](NC(=O)c2ccnn2C(C)C)C(C2CC2)C2CC2)cc1O	> 7.00
Cc1n[nH]c(C)c1-c1ccc(NC(=O)[C@@H](NC(=O)c2ccnn2[C@H](C)CO)C(C)C2CCC2)cc1 (single isomer, unassigned) [Example 164]	6.00 to 7.00
Cc1n[nH]c(CO)c1-c1ccc(NC(=O)[C@@H](NC(=O)c2ccnn2C(C)C)C(C2CC2)C2CC2)cc1	> 7.00

Supply recorded pEC50 for Cc1n[nH]c(C)c1-c1ccc(NC(=O)[C@@H](NC(=O)c2ccnn2C)C2CC3CCC2CC3)cc1 (single isomer, unassigned) here.
6.00 to 7.00

Supply recorded pEC50 for Cc1n[nH]c(C)c1-c1ccc(NC(=O)[C@@H](NC(=O)c2cnnn2-c2ccccc2)C2CCCCC2)cc1 here.
6.00 to 7.00

Supply recorded pEC50 for Cc1n[nH]c(C)c1-c1ccc(NC(=O)[C@@H](NC(=O)C2CCCC2)C(C2CC2)C2CC2)cc1 here.
6.00 to 7.00

Supply recorded pEC50 for Cc1n[nH]c(C)c1-c1ccc(NC(=O)[C@@H](NC(=O)c2ccnn2C(C)C)[C@H]2CC[C@H](C)CC2)cc1 here.
> 7.00
